system: antibody in the antiserum of rabbit immunized by the clonidine bovine serum albumin immunogen; assay: Radioimmunoassay specificity: competition with clonidine-14C for binding to the antiserum; conditions: 100 ng to 500 pg of competitor, antiserum 1:50, about 18 hours at 4° C., pH 7.4
quantity name: recognition by the antibody in the presence of labelled clonidine

Observe how each entry below is paired with its result.
• c1ccc(NC2=NCCN2)cc1 [2-anilino-2-imidazoline] = failed to recognize
• Clc1cccc(Cl)c1NC1=NCCO1 [2-(2,6-dichloro-anilino)-2-oxazoline, 2-(2,6-dichloroanilino)-2-oxazoline] = failed to recognize
• Oc1cc(Cl)c(NC2=NCCN2)c(Cl)c1 = recognized
• NS(=O)(=O)c1cc(Cl)c(NC2=NCCN2)c(Cl)c1 = recognized
• Nc1ccccc1 [aniline] = failed to recognize

Look up recognition by the antibody in the presence of labelled clonidine for this compound: CC(=O)NN1CCN=C1Nc1c(Cl)cccc1Cl recognized

For Clc1cccc(Cl)c1CC1=NCCN1 [2-(2,6-dichlorobenzyl)-2-imidazoline] then? failed to recognize

For Cc1cccc(NC2=NCCN2)c1Cl then? recognized

For Cc1cccc(Cl)c1NC1=NCCN1 then? recognized

For CN1CCN=C1Nc1c(Cl)cccc1Cl then? failed to recognize

For Cc1ccc(NC2=NCCN2)c(Cl)c1 then? recognized
